target: T1, hen egg-white lysozyme (hen, UniProt P00698 19-147); assay: fluorescence titration in solution, 0.3 µM conjugate, buffer C, 25 °C
T1 construct: also called HEL
T1 sequence (P00698 19-147): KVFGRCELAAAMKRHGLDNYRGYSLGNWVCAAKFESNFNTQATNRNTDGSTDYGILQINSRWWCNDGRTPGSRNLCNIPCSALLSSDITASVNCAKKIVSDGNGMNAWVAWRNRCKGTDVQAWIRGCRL
Entries and their Kd values follow.
REPORTED PROPERTY: Kd (nM)

>  <BINDER>
H4S conjugate, IANBD fluorophore coupled at position Lys28 (designed binder, Cys at position 28 (H4S numbering) coupled to IANBD ester (ANBD)) MRGSHHHHHHGSVKVKFFWNGEEKEVDTSKIVWVKRAGCSVLFIYDDNGKNGYGDVTEKDAPKELLDMLARAEREKKLN

>  <UNITS LABEL>
nM

>  <EXPERIMENTAL RESULT>
28

$$$$
>  <BINDER>
H4S conjugate, IANBD fluorophore coupled at position Asn40 (designed binder, Cys at position 40 (H4S numbering) coupled to IANBD ester (ANBD)) MRGSHHHHHHGSVKVKFFWNGEEKEVDTSKIVWVKRAGKSVLFIYDDNGKCGYGDVTEKDAPKELLDMLARAEREKKLN

>  <UNITS LABEL>
nM

>  <EXPERIMENTAL RESULT>
2000

$$$$
>  <BINDER>
H4S conjugate, IANBD fluorophore coupled at position Asp44 (designed binder, Cys at position 44 (H4S numbering) coupled to IANBD ester (ANBD)) MRGSHHHHHHGSVKVKFFWNGEEKEVDTSKIVWVKRAGKSVLFIYDDNGKNGYGCVTEKDAPKELLDMLARAEREKKLN

>  <UNITS LABEL>
nM

>  <EXPERIMENTAL RESULT>
623

$$$$
>  <BINDER>
H4S conjugate, IANBD fluorophore coupled at position Thr46 (designed binder, Cys at position 46 (H4S numbering) coupled to IANBD ester (ANBD)) MRGSHHHHHHGSVKVKFFWNGEEKEVDTSKIVWVKRAGKSVLFIYDDNGKNGYGDVCEKDAPKELLDMLARAEREKKLN

>  <UNITS LABEL>
nM

>  <EXPERIMENTAL RESULT>
100

$$$$
